# growth per entry
Tested on: MOLT-4 leukemia
assay info: NCI-60 one-dose screen, 48 h (100 = growth as untreated, 0 = no growth, -100 = all killed)
condition description: 10 µM unless noted
Description: Growth inhibition of the MOLT-4 human tumor cell line is measured as a screen for anti-cancer activity. Cells are grown in 96 well plates and exposed to the test compound for 48 hours. Compounds are tested at a single concentration, which is 10^-5 M for most compounds. The reported endpoint is percent growth (GI% or GIPRCNT), where numbers from 0 - 100% represent growth inhibition, and numbers from -100% - 0 represent cell death. For example, a value of 40 represents 60% growth inhibition. […]
This is part of a sample that, as a whole, favours compounds with a hit. Of some 83,000 tested, about 20% had one in any assay.
Number in %, nothing else.

Some molecules with recorded growth:
Documented growth of COc1ccc2nc3cc(Cl)ccc3c(Nc3cc(C(C)C)c(O)cc3C)c2c1 : 18

get_value(item= O=C1NCC(Nc2ccc(Br)cc2Cl)C(=O)N1 (configuration not stated) , readout=growth) returns 109

Field growth (entry CC(=O)Oc1c(C)c(OC(C)=O)c2c(c1C(C)=O)OC1CC(=O)C(C(C)=O)=C(O)C21C (configuration not stated) ) reads 64

# growth of O=C1CN(CO)C(=O)CN1CO = 105

growth reported for this molecule O=C(Nc1ccc(Nc2ccncc2)cc1)c1ccc(Nc2ccnc3ccc([N+](=O)[O-])cc23)cc1[N+](=O)[O-] : 109

Noted for COc1cccc2c1C(=O)c1c(O)c3c(c(O)c1C2=O)C[C@@](O)(/C(C)=N/NC(=O)c1cccc([N+](=O)[O-])c1)C[C@@H]3OC1CC(N)C(O)C(C)O1 (some centres not stated) : its growth reads -39

Further cases:
Sure, the documented growth for Cn1cc(-c2csc(-c3c[nH]c4ncccc34)n2)c2cc(F)cnc21 is 80.5

Memo: O=C1OCC/C1=C\OCCCO/C=C1\CCOC1=O , reported growth: 111

Measured growth of CCOC(=O)/C=C(/C)Sc1cc(O)c2ccccc2c1O : 33

Just for reference, PubChem BioAssay (NCI) is where these values come from.
